A collection of compounds and their measured growth
system: MDA-MB-231 breast; test: NCI-60 one-dose screen, 48 h (100 = growth as untreated, 0 = no growth, -100 = all killed); conditions: 10 µM unless noted
Compounds without any hit were thinned out: in the full panel of roughly 83,000, 20% have a hit.

| compound | measure-unit | growth |
| --- | --- | --- |
| Cc1cccc(C)c1N=c1oc2ccc(Cl)cc2nc1-c1ccccc1O | % | 83.6 |
| Cn1cc(-c2nc(-c3c[nH]c4c(Cl)nccc34)cs2)c2cc(Br)ccc21 | % | 96.9 |
| Nc1ccccc1NC(=O)c1ccc(-n2nc(-c3ccccc3)c3ccccc32)cc1 | % | 42.9 |
| Cc1cc2nc3c4cccc(O)c4n(CCN(C)C)c3nc2cc1C | % | 28.1 |
| C=C1C(=O)O[C@H]2[C@H]1CC/C(CNC(=O)/C=C/c1cccc(OC)c1)=C\CC[C@@]1(C)O[C@@H]21 | % | 7.34 |
| COC(=O)/C=C1\S/C(=N\NC(=O)c2cc3ccc2/C=C\c2ccc(cc2)/C=C\3)N(c2ccccc2)C1=O | % | 32.5 |
| CCN(CC)CCCC(C)Nc1cc(O)cc2cccnc12 (stereo not given) | % | 69.4 |
| COc1ccc(C(=O)/C=C/c2cc3ccccc3n3nnnc23)cc1 | % | 106 |
| O=C(NCCNc1nccc(-c2c(-c3cccc(F)c3)nc3sccn23)n1)c1ccc(Cl)cc1 | % | 65.5 |
| O=C1Nc2ccccc2/C1=C\c1c(-c2ccc(F)cc2)nc2ccccn12 | % | 60.2 |

====

tested on: M14 melanoma; experiment: NCI-60 one-dose screen, 48 h (100 = growth as untreated, 0 = no growth, -100 = all killed); conditions: 10 µM unless noted
About 83,000 compounds went through this panel and 20% of them were active in at least one assay; those are over-represented in the sample as a whole.
Label rule, in plain words: growth of 20% and up is Criterion met, under 20% is Criterion not met.

| compound | class-name |
| --- | --- |
| COc1cc(/C=N/NC(=O)c2cnn3c2NC(c2ccccc2)C3)ccc1Oc1ccccc1 (stereo not given) | Criterion not met |
| C[C@@H](Nc1ncnc2ccc(-c3cnc(N)nc3)cc12)c1ccc(F)cc1 | Criterion met |
| COc1cc2cc(Oc3cccc(NC(=O)Nc4cc(C(F)(F)F)cc(C(F)(F)F)c4)c3)c(C)nc2cc1OC | Criterion not met |
| COc1cc2nc(-c3ccc(C(F)(F)F)cc3)cc(OCCN3CCCCC3)c2cc1OC | Criterion not met |
| O=S(=O)(NCCCNc1nccc(-c2c(-c3cccc(F)c3)nc3sccn23)n1)c1cccc(F)c1 | Criterion met |

====

test system: HOP-62 NSCLC; experiment: NCI-60 one-dose screen, 48 h (100 = growth as untreated, 0 = no growth, -100 = all killed); conditions: 10 µM unless noted
The panel holds about 83,000 compounds, 20% with a hit somewhere; the sample as a whole holds those more often.
outcome-measure: growth (%)

| compound | study-target | outcome-measure | recorded-value |
| --- | --- | --- | --- |
| Cc1nc2sccn2c1-c1nc2sccn2c1/C=C1/C(=O)Nc2ccccc21 | HOP-62 NSCLC | growth | 53.7 |
| O=S(=O)(NCCNc1nccc(-c2c(-c3cccc(O)c3)nc3occn23)n1)c1ccc(C(F)(F)F)cc1 | HOP-62 NSCLC | growth | 107 |
| COc1ccc(/C=C/c2nc(Nc3ccc(S(=O)(=O)Nc4nc(C)cc(C)n4)cc3)c3ccccc3n2)cc1 | HOP-62 NSCLC | growth | 75.6 |
| O=[N+]([O-])CC(c1ccccc1F)c1c[nH]c2ccccc12 (stereo not drawn) | HOP-62 NSCLC | growth | 69 |
| CC(=O)OC[C@]12CC[C@@H](C(=O)CBr)[C@@H]1[C@H]1CC[C@@H]3[C@@]4(C)CC[C@H](OC(C)=O)C(C)(C)[C@@H]4CC[C@@]3(C)[C@]1(C)CC2 | HOP-62 NSCLC | growth | 103 |
| CCCCCOc1ccc(/C=N/Nc2cc(C)nc3ccc(Cl)cc23)cc1 | HOP-62 NSCLC | growth | 29.7 |
| C=C(C)[C@@H]1CC[C@]2(C(=O)N3CCN(C)CC3)CC[C@]3(C)[C@H](CC[C@@H]4[C@@]5(C)C/C(=C/c6ccncc6)C(=O)C(C)(C)[C@@H]5CC[C@]43C)[C@@H]12 | HOP-62 NSCLC | growth | 85.1 |
| COc1cc(/C=N/NC(=O)c2cnn3c2NC(c2ccccc2)C3)ccc1OCc1ccccc1 (stereo not drawn) | HOP-62 NSCLC | growth | -1.18 |
| O=C(NCCc1ccccc1)Nc1ccc2cc3ccc(NC(=O)NCCc4ccccc4)cc3nc2c1 | HOP-62 NSCLC | growth | 39.4 |
| COc1ccc(/C=C(\C#N)n2nc3cccc(F)c3n2)cc1 | HOP-62 NSCLC | growth | 105 |
| O=C1Nc2cc(-c3ccc(NC(=O)C4CC4)cc3)ccc2/C1=C/c1ccc[nH]1 | HOP-62 NSCLC | growth | 104 |
| CN1CCN(C(=O)[C@]23CCC(C)(C)C[C@H]2C2=CC[C@@H]4[C@@]5(C)C/C(=C/c6cccnc6)C(=O)C(C)(C)[C@@H]5CC[C@@]4(C)[C@]2(C)CC3)CC1 | HOP-62 NSCLC | growth | 85.2 |
| CC1(C)NCCC[C@]2(C)[C@H]3CC[C@@H]4[C@H]5[C@H](C(=O)/C=C/c6ccco6)CC[C@]5(CO)CC[C@@]4(C)[C@]3(C)CC[C@@H]12 | HOP-62 NSCLC | growth | 91.8 |
| CCNC(=O)Oc1ccc(/C(=C(\C)c2ccccc2)c2ccc(OCCN(CC)CC)cc2)cc1 | HOP-62 NSCLC | growth | 96.2 |
| NC(=O)CSSCC(N)=O | HOP-62 NSCLC | growth | 103 |
| COCc1cnccc1NC1CCCCCC1 | HOP-62 NSCLC | growth | 99.9 |
| Clc1ccc(-c2ccc(CNCC3CCNCC3)o2)c(-c2ccccc2)c1 | HOP-62 NSCLC | growth | -78.3 |
| COc1cc2c3c(c4c5ccccc5[nH]c4c2c(OC)c1OC)C(=O)N(CCN1CCOCC1)C3=O | HOP-62 NSCLC | growth | 59.9 |

====

Test system: HS 578T breast
Assay: NCI-60 one-dose screen, 48 h (100 = growth as untreated, 0 = no growth, -100 = all killed)
Conditions: 10 µM unless noted
Procedure: Growth inhibition of the HS 578T human tumor cell line is measured as a screen for anti-cancer activity. Cells are grown in 96 well plates and exposed to the test compound for 48 hours. Compounds are tested at a single concentration, which is 10^-5 M for most compounds. The reported endpoint is percent growth (GI% or GIPRCNT), where numbers from 0 - 100% represent growth inhibition, and numbers from -100% - 0 represent cell death. For example, a value of 40 represents 60% growth inhibition. […]
The panel holds about 83,000 compounds, 20% with a hit somewhere; the sample as a whole holds those more often.
The label condition met is reserved for growth strictly under 90%; condition not met covers values equal to or above it.

| compound | class-name |
| --- | --- |
| O=C1Nc2cc(-c3cccc([N+](=O)[O-])c3)ccc2/C1=C/c1ccc[nH]1 | condition not met |
| CCCOC(=O)N[C@H]1CCc2c(Cl)c(OC)c(OC)c(OC)c2-c2ccc(SC)c(=O)cc21 | condition met |
| Nc1nc(Nc2ccccc2SSc2ccccc2Nc2nc(N)nc(-c3cccs3)n2)nc(-c2ccsc2)n1 | condition not met |
| COc1cc(/C(C)=C(\c2ccc(Cl)cc2)c2ccc(OCCN3CCCC3)cc2)ccc1F | condition met |
| COc1ccc(C(=O)c2cc(OC)c(OC)c(OC)c2)cc1O | condition met |
| O=c1[nH]nc(-c2ccccc2)c2sc3ncc(-c4ccc(Br)cc4)n3c12 | condition met |
| COc1cc(C2=NN(C(C)=O)C(c3cc(OC)c(OC)c(OC)c3)C2)ccc1O (stereo not given) | condition met |
| COc1ccc(C(=O)c2cc(C)c(OC)c(C)c2)c(OC)c1N(C(=O)CCl)C(=O)CCl | condition met |

====

System: UACC-62 melanoma
Assay: NCI-60 one-dose screen, 48 h (100 = growth as untreated, 0 = no growth, -100 = all killed)
Conditions: 10 µM unless noted
Description: Growth inhibition of the UACC-62 human tumor cell line is measured as a screen for anti-cancer activity. Cells are grown in 96 well plates and exposed to the test compound for 48 hours. Compounds are tested at a single concentration, which is 10^-5 M for most compounds. The reported endpoint is percent growth (GI% or GIPRCNT), where numbers from 0 - 100% represent growth inhibition, and numbers from -100% - 0 represent cell death. For example, a value of 40 represents 60% growth inhibition. […]
About 83,000 compounds went through this panel and 20% of them were active in at least one assay; those are over-represented in the sample as a whole.
A collection of compounds and their measured growth

| compound | growth, % |
| --- | --- |
| O=C(Nc1ccccc1)Nc1ccc2cc3ccc(NC(=O)Nc4ccccc4)cc3nc2c1 | 18.7 |
| Cn1ccnc1C(=O)/C=C/c1ccc(CC(=O)Nc2ccc(F)cc2)cc1 | 54.3 |
| O=C1OC(Cc2ccccc2)C1c1ccccc1 (centres undefined) | 94.2 |
| CCc1c2c(nc3ccc(OCc4ccc(B(O)O)cc4)cc13)-c1cc3c(c(=O)n1C2)COC(=O)[C@]3(O)CC | -25.1 |
| C=C(C)[C@@H]1CC[C@]2(C(=O)N3CCN(C)CC3)CC[C@]3(C)[C@H](CC[C@@H]4[C@@]5(C)C/C(=C/c6cccnc6)C(=O)C(C)(C)[C@@H]5CC[C@]43C)[C@@H]12 | 81.4 |
| NC(=O)CSSCC(N)=O | 95.8 |
| N#CC1=C(/N=C/c2ccccc2)Oc2c(ccc3ccccc23)C1c1ccc([N+](=O)[O-])cc1 (centres undefined) | 87.2 |
| C=C1C(=O)O[C@H]2[C@H]1CC/C(COC(=O)NCc1c[nH]c3ccc(Cl)cc13)=C\CC[C@@]1(C)O[C@@H]21 | -73.8 |
| CCN1CCN(CCNc2nccc(-c3c(-c4cccc(OC)c4)nc4occn34)n2)S1(=O)=O | 27.5 |
